Test system: S. aureus
Assay type: cell-based
Decide by Inhibition of TSST-1: equal to or exceeding 6 µg/mL means true, less means false.

molecule="N[C@@H](Cc1c[nH]c2ccccc12)C(=O)O [Reference #46, H-L-Trp-OH]" qualitative_label=true
molecule="O=C(N[C@@H](C/C=C/c1ccccc1)C(=O)O)OCC1c2ccccc2-c2ccccc21 [Reference #124, Fmoc-L-styrylalanine]" qualitative_label=true
molecule="O=C(NC1(C(=O)O)CCCCC1)OCC1c2ccccc2-c2ccccc21 [Reference #86]" qualitative_label=true
molecule="O=C(N[C@@H](Cc1cn(C(c2ccccc2)(c2ccccc2)c2ccccc2)cn1)C(=O)O)OCC1c2ccccc2-c2ccccc21 [Reference #29, Fmoc-L-His(Trt)-OH]" qualitative_label=false
molecule="O=C(O)[C@H]1c2ccccc2CCN1C(=O)OCC1c2ccccc2-c2ccccc21 [Reference #16]" qualitative_label=false
molecule="O=C(Nc1ccccc1C(=O)O)OCC1c2ccccc2-c2ccccc21 [Reference #4, Fmoc-2-aminobenzoic acid]" qualitative_label=false
molecule="CC(C)(C)OC(=O)n1cc(C[C@H](NC(=O)OCC2c3ccccc3-c3ccccc32)C(=O)O)c2ccccc21 [Reference #35, Fmoc-L-Trp(Boc)-OH]" qualitative_label=false

###

Test system: S. aureus
Assay Comment: microbe, parasite or virus in culture
Condition Summary: Staphylococcus aureus, Erythrocyte, in Oryctolagus cuniculus, read-out: IC50 (relative activity), text b100/b101; assay not named, values match the α-hemolysin column of Table 4
Metric: IC50 (µg/mL)

molecule=O=C(N[C@@H](Cc1ccc2ccccc2c1)C(=O)O)OCC1c2ccccc2-c2ccccc21 recorded_result=4.2
molecule=O=C(N[C@H](C(=O)O)c1ccccc1)OCC1c2ccccc2-c2ccccc21 recorded_result=5
molecule=O=C(N[C@@H](C(=O)O)c1ccccc1)OCC1c2ccccc2-c2ccccc21 recorded_result=5.5
molecule=O=C(N[C@@H](CC1CCCCC1)C(=O)O)OCC1c2ccccc2-c2ccccc21 recorded_result=4
molecule="O=C(N[C@@H](Cc1cccs1)C(=O)O)OCC1c2ccccc2-c2ccccc21 [Reference #83, Fmoc-beta-(2-thienyl)-L-alanine]" recorded_result=25

###

Tested on: S. aureus
Define the label as True when IC50 (relative activity) is strictly less than 2 µg and as False in all remaining cases.

compound="O=C(O)[C@H]1[C@H](c2ccccc2)CN1C(=O)OCC1c2ccccc2-c2ccccc21 (racemic) [Reference #104]" target_or_system="S. aureus" qualitative_label=False
compound="CC(C)(C)OC(=O)n1cc(C[C@@H](NC(=O)OCC2c3ccccc3-c3ccccc32)C(=O)O)c2ccccc21 [Fmoc-D-Trp(Boc)-OH]" target_or_system="S. aureus" qualitative_label=True
compound="O=C(O)[C@@H]1CCN1C(=O)OCC1c2ccccc2-c2ccccc21 [Fmoc-L-azetidine-2-carboxylic acid]" target_or_system="S. aureus" qualitative_label=False
compound="O=C(O)CC(NC(=O)OCC1c2ccccc2-c2ccccc21)c1ccc(Br)cc1 (racemic)" target_or_system="S. aureus" qualitative_label=True
compound="CC(C)[C@H](NC(=O)OCC1c2ccccc2-c2ccccc21)C(=O)O [Fmoc-L-Val-OH]" target_or_system="S. aureus" qualitative_label=False
compound="O=C(N[C@@H](Cc1c[nH]c2ccccc12)C(=O)O)OCC1c2ccccc2-c2ccccc21 [Fmoc-L-Trp-OH]" target_or_system="S. aureus" qualitative_label=False
compound=O=C(NC1(C(=O)O)CCCCC1)OCC1c2ccccc2-c2ccccc21 target_or_system="S. aureus" qualitative_label=True
compound="O=C(O)CC[C@H](Cc1ccccc1)NC(=O)OCC1c2ccccc2-c2ccccc21 [(R)-Fmoc-4-amino-5-phenyl-pentanoic acid]" target_or_system="S. aureus" qualitative_label=True
compound="CC(C)(C)OC(=O)n1cc(C[C@H](NC(=O)OCC2c3ccccc3-c3ccccc32)C(=O)O)c2ccccc21 [Fmoc-L-Trp(Boc)-OH]" target_or_system="S. aureus" qualitative_label=True
compound="C[C@H](NC(=O)OCC1c2ccccc2-c2ccccc21)C(=O)O [Fmoc-L-Ala-OH]" target_or_system="S. aureus" qualitative_label=False
compound="O=C(N[C@@H](Cc1ccccc1)C(=O)O)OCC1c2ccccc2-c2ccccc21 [Fmoc-L-Phe-OH]" target_or_system="S. aureus" qualitative_label=True
compound=O=C(O)[C@@H]1CC[C@H](c2ccccc2)N1C(=O)OCC1c2ccccc2-c2ccccc21 target_or_system="S. aureus" qualitative_label=True

Value source: patent US20030050248A1
